Kindly state %Inh for each of the entries shown.
- System: LCK
- SETTINGS: concentration: 1 μM, replicates: in singlicate; n = 1;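 further: KINOMEscan kinase panel screen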
Remember to follow the number with its unit.

Item "CCC(=O)c1c(-c2ccccc2)c2cc(Cl)ccc2c(=O)n1Cc1cc(C(=O)NC2CC2)n(C)n1" has what recorded %Inh?
0%

Same lookup for "COc1cc2ncn(-c3cc(OCCCc4ccccc4)c(C(N)=O)s3)c2cc1OC" , please.
16%

Same lookup for "Nc1ncnc2c1ncn2-c1cccc(F)c1" , please.
20%

Same lookup for "Cc1nc(N(C)[C@H]2CN(C(=O)CC#N)CC[C@H]2C)c2cc[nH]c2n1" , please.
0%

Same lookup for "O=C(Nc1ccc2c(c1)OCO2)NC1CCN(c2ccnc(NCc3ccc(F)cc3)n2)CC1" , please.
14%

Same lookup for "CN(C)c1cc(-c2ccc3c(N)n[nH]c3c2)nc(N)n1" , please.
17%

Same lookup for "COc1cc2nccc(Nc3ccc(OCc4ccc(NC(C)=O)cc4)cc3)c2cc1OC.Cl" , please.
22%

Same lookup for "O=C(Nc1n[nH]c2nc(-c3ccccc3)c(Cl)cc12)C1CC1" , please.
3%

Same lookup for "Nc1nccc2scc(-c3ccc4c(c3)CCN4C(=O)Cc3ccccc3)c12" , please.
11%

Same lookup for "COC(=O)c1c(-c2ccccc2)c2cc(C)ccc2c(=O)n1Cc1ccccc1" , please.
0%

Same lookup for "COc1ccc(-c2coc3ccc(-c4nnc(SCc5cccc(C#N)c5)o4)cc23)cc1" , please.
11%

Same lookup for COc1ccc(CNC(=O)NC2CCN(c3ccnc(Nc4ccc(F)cc4)n3)C2)cc1 (stereo not shown) , please.
16%

Same lookup for "CCCC(=O)Nc1n[nH]c2ncc(-c3cccc4ccccc34)cc12" , please.
20%

Same lookup for "CCC(=O)c1c(-c2ccccc2)c2cc(Cl)ccc2c(=O)n1Cc1ccc(C(=O)O)cc1" , please.
0%

Same lookup for "COC(=O)c1c(-c2ccccc2)c2cc(Br)ccc2c(=O)n1Cc1ccc(S(C)(=O)=O)cc1" , please.
0%

Same lookup for "CC(C)(C)c1ccc(C(=O)Nc2cn3cc(-c4ccccc4)ccc3n2)cc1" , please.
8%

Same lookup for "OCCCNc1nccc(-c2c(-c3cccc(C(F)(F)F)c3)nn3cc(C(F)(F)F)ccc23)n1" , please.
0%

Same lookup for "Cn1c(=O)c(F)c(Nc2ccc(I)cc2F)c2c(=O)n(OC[C@H](O)CO)cnc21" , please.
1%

Same lookup for "O=C(Nc1n[nH]c2nc(-c3ccccc3)c(Br)cc12)C1CC1" , please.
23%

Same lookup for "Nc1n[nH]c2ncc(-c3ccccc3)cc12" , please.
7%

Same lookup for "Cl.c1ccc(Cn2cnc3cc(Nc4ncnc5ccccc45)ccc32)cc1" , please.
25%

Same lookup for "COc1cccc(C2=C(Nc3cccc(C(=O)O)c3)C(=O)NC2=O)c1" , please.
37%

Same lookup for "Nc1ncnc2c1ncn2-c1cccc2ccccc12" , please.
0%

Same lookup for "Cc1c(Cn2c(C)nn3c(=O)cc(N4CCO[C@H](C)C4)nc23)cccc1C(F)(F)F" , please.
15%

Same lookup for "Cc1nnc(-c2ccc(C)c(-c3ccc(C(=O)O)cc3)c2)o1" , please.
0%

Same lookup for COc1cc(Nc2nccc(N3CCC(NC(=O)C(C)c4ccc(Cl)cc4)C3)n2)cc(OC)c1OC (stereo not shown) , please.
8%

Same lookup for "CCC(=O)c1c(-c2ccccc2)c2cc(Cl)ccc2c(=O)n1Cc1cc(S(C)(=O)=O)n(CC(F)F)n1" , please.
0%

Same lookup for "COC(=O)c1c(-c2ccccc2)c2cc(Br)ccc2c(=O)n1Cc1ccc(NC(=O)CCC(=O)O)cc1" , please.
0%

Same lookup for Cc1nnc(-c2ccc3ncn(-c4ccc(S(C)=O)cc4)c3c2)o1 (stereo not shown) , please.
10%

Same lookup for "Nc1ncnc2c1ncn2-c1ccc(Cl)cc1" , please.
24%

Same lookup for "COc1cc(OC)cc(-c2cc3cnc(N)nc3nc2NC(=O)NC(C)(C)C)c1" , please.
0%

Same lookup for "COc1cc2ncn(-c3cc(OCc4ccncc4)c(C(N)=O)s3)c2cc1OC" , please.
30%

Same lookup for "Cc1cc(Nc2nc(-c3cccc(C)n3)nc3ccccc23)ccn1" , please.
0%

Same lookup for CCS(=O)c1ccc(-c2coc3ccc(-c4nnc(C)o4)cc23)cc1 (stereo not shown) , please.
5%

Same lookup for "O=C1NC(=O)C(c2ccccc2)=C1Nc1cccc(O)c1" , please.
24%

Same lookup for "CCC(=O)c1c(-c2ccccc2)c2cc(Cl)ccc2c(=O)n1Cc1cc(S(C)(=O)=O)n(CCC(C)(C)O)n1" , please.
13%

Same lookup for "COc1cc2nccc(Nc3cccc(Oc4ccccc4)c3)c2cc1OC.Cl" , please.
51%

###

- Tested on: MAP3K15
- SETTINGS: concentration: 1 μM, replicates: in singlicate; n = 1
Kindly state %Inh for each of the entries shown.
Numeric answer only, unit % assumed.

# get_value(readout= %Inh, system= MAP3K15) for "Cl.c1ccc(Cn2cnc3cc(Nc4ncnc5ccccc45)ccc32)cc1"
0

Same lookup for "O=C(NCCNc1ccnc(Nc2ccc(F)cc2)n1)Nc1ccc2c(c1)OCO2" , please.
0

Same lookup for "CCc1nc(-c2cccc(C)c2)c(-c2ccncc2)s1" , please.
0

Same lookup for "Cc1ccc(Oc2ccc(Nc3ncnc4cc[nH]c34)cc2C)cn1" , please.
38

Same lookup for "Cc1c(Cn2c(C)nn3c(=O)cc(N4CCO[C@H](C)C4)nc23)cccc1C(F)(F)F" , please.
26

Same lookup for "Cc1ccc(-c2ccc3c(ccc4sc5c(c43)NC[C@@H](C)N=C5N(C)C)n2)cn1" , please.
0

Same lookup for "C[C@@H]1CC[C@H](C(=O)NC2CCCCC2)CN1c1cc(-c2ccc3c(N)n[nH]c3c2)nc(N)n1" , please.
0

Same lookup for "CCCC(=O)Nc1n[nH]c2ncc(-c3cccc4ccccc34)cc12" , please.
0

Same lookup for "CCC(=O)c1c(-c2ccccc2)c2cc(Cl)ccc2c(=O)n1Cc1cc(S(C)(=O)=O)n(CCC(C)(C)O)n1" , please.
43

Same lookup for "Cc1ccccc1COc1cc(-n2cnc3cc(Cl)ccc32)sc1C(N)=O" , please.
1

Same lookup for "FC(F)(F)c1ccc(-c2ncn(CCCN3CCOCC3)c2-c2ccncc2)cc1" , please.
7

###

- System: MAST1
- SETTINGS: concentration: 1 μM, replicates: in singlicate; n = 1
Label no (0) if %Inh falls below 3%; label yes (1) in every other case.

Test whether the compound "COc1cccc(C2=C(Nc3cccc(C(=O)O)c3)C(=O)NC2=O)c1" records %Inh of 3% or higher.
yes (1)

Same lookup for "OCCCNc1nccc(-c2c(-c3cccc(C(F)(F)F)c3)nn3cc(C(F)(F)F)ccc23)n1" , please.
no (0)

Same lookup for "COc1cc2ncn(-c3cc(OCCCc4ccccc4)c(C(N)=O)s3)c2cc1OC" , please.
no (0)

Same lookup for COc1ccc(Nc2nccc(N3CCC(NS(=O)(=O)c4ccc(NC(C)=O)cc4)C3)n2)cc1 (stereo not shown) , please.
no (0)

Same lookup for "O=C(Nc1n[nH]c2nc(-c3ccccc3)c(Br)cc12)C1CC1" , please.
no (0)

Same lookup for "COc1cc(OC)cc(-c2cc3cnc(N)nc3nc2NC(=O)NC(C)(C)C)c1" , please.
no (0)

Same lookup for "Cc1cc(Nc2nc(-c3cccc(C)n3)nc3ccccc23)ccn1" , please.
no (0)

Same lookup for "Fc1cccc(CSc2nnc(-c3ccc4c(c3)CCO4)o2)c1" , please.
no (0)

Same lookup for "Cn1c(=O)c(F)c(Nc2ccc(I)cc2F)c2c(=O)n(OC[C@H](O)CO)cnc21" , please.
yes (1)

Same lookup for "CCCNC(=O)Nc1ccc(Oc2ncnc3ccn(C)c23)cc1" , please.
no (0)

Same lookup for "CCn1c(-c2ccoc2)nc2cnccc21" , please.
yes (1)

Same lookup for "Cc1cccc(-c2nc(Nc3ccc4c(cnn4C)c3)c3ccccc3n2)n1" , please.
yes (1)

Same lookup for "Cc1ccc(-c2ccc3c(ccc4sc5c(c43)NC[C@@H](C)N=C5N(C)C)n2)cn1" , please.
no (0)

Same lookup for "CN1C(=O)C(Nc2cc(Cl)c(O)c(Cl)c2)=C(c2ccc(Cl)cc2)C1=O" , please.
yes (1)

Same lookup for "Cc1c(Cn2c(C)nn3c(=O)cc(N4CCO[C@H](C)C4)nc23)cccc1C(F)(F)F" , please.
no (0)

Same lookup for CCS(=O)c1ccc(-c2coc3ccc(-c4nnc(C)o4)cc23)cc1 (stereo not shown) , please.
yes (1)

Same lookup for "COc1ccc(-n2cnc3c(N)ncnc32)cc1" , please.
no (0)

Same lookup for "CC(C)(C)c1ccc(C(=O)Nc2cn3cc(-c4ccccc4)ccc3n2)cc1" , please.
no (0)

###

- Tested on: CHEK1
- SETTINGS: concentration: 1 μM, replicates: in singlicate; n = 1
Kindly state %Inh for each of the entries shown.
Remember to follow the number with its unit.

# get_value(readout= %Inh, system= CHEK1) for "CCC(=O)c1c(-c2ccccc2)c2cc(Cl)ccc2c(=O)n1Cc1ccc(C(=O)O)cc1"
0%

Same lookup for "CCC(=O)c1c(-c2ccccc2)c2cc(Cl)ccc2c(=O)n1Cc1cc(S(C)(=O)=O)n(CC(N)=O)n1" , please.
0%

Same lookup for CCS(=O)c1ccc(-c2coc3ccc(-c4nnc(C)o4)cc23)cc1 (stereo not shown) , please.
0%

Same lookup for "Cc1ccc(Oc2ccc(Nc3ncnc4cc[nH]c34)cc2C)cn1" , please.
6%

Same lookup for Cc1nn2c(=O)cc(N3CCOCC3)nc2n1Cc1cccc(Cl)c1Cl [GSK2342769] , please.
26%

Same lookup for O=C(Nc1n[nH]c2nc(-c3ccccc3)c(Br)cc12)C1CC1 [SB-708998] , please.
15%

Same lookup for Nc1nc(-c2ccccc2F)c(-c2ccnc3ccccc23)s1 [GW560459] , please.
0%
